- System: MCF-7/DOX cells
- TEST_DETAILS: Cellular accumulation of cis and trans-flupenthixol in MCF-7/DOX cells
- Format: cell-based, human
- REPORTED_CONDITIONS: 3 μM, 3 hour incubation
Measured cell associated drug concentration at 3 μM by item
Note: unit pmol/10^6 cells is implicit; provide only the numeric part.

OCCN1CCN(CC/C=C2/c3ccccc3Sc3ccc(C(F)(F)F)cc32)CC1 [cis-Flupenthixol] :: 830

Note: attention shifts to another entry.
// cell associated drug concentration at 3 μM lookup, molecule = OCCN1CCN(CC/C=C2\c3ccccc3Sc3ccc(C(F)(F)F)cc32)CC1 [trans-Flupenthixol] , result: 420

---

- Test system: MCF-7/DOX cells
- TEST_DETAILS: Inhibition of MCF-7/DOX cell growth, microtiter methylene blue staining assay, 48 h
- Assay type: cell-based, human
- REPORTED_CONDITIONS: read-out: IC50 for cell growth inhibition
READOUT_TYPE: IC50 (µM)
Note: unit µM is implicit; provide only the numeric part.

// IC50 lookup, compound = CN(C)CCCN1c2ccccc2Sc2ccc(C(F)(F)F)cc21 , result: 14

---

- Tested on: MCF-7/DOX cells
- TEST_DETAILS: Inhibition of MCF-7/DOX cell growth, microtiter methylene blue staining assay, 48 h
- Type: cell-based, human
- REPORTED_CONDITIONS: Homo sapiens, MCF7-DOX, 48 h; read-out: IC50 for cell growth inhibition
READOUT_TYPE: pIC50
// field semantics: pIC50 = negative decimal log of concentration (mol/L)

OCCN1CCN(CCCN2c3ccccc3Sc3ccc(Cl)cc32)CC1 [Perphenazine] :: 4.49
CN1CCN(CCCN2c3ccccc3Sc3ccc(C(F)(F)F)cc32)CC1 [Trifluoperazine] :: 4.72
CN(C)CCCN1c2ccccc2Sc2ccc(Cl)cc21 [Chlorpromazine] :: 5.10
CC(CN1c2ccccc2Sc2ccccc21)N(C)C (centres unmarked) [Promethazine] :: 4.54

Note: attention shifts to another entry.
// pIC50 lookup, molecule = CN(C)CCCN1c2ccccc2Sc2ccc(C(F)(F)F)cc21 [Trifluopromazine] , result: 4.80
